target: RET V804L (Homo sapiens (Human), UniProt P07949, V804L); test: RET V804L Gatekeeper Mutant Assay at KM (Caliper electrophoretic mobility shift); conditions: 10 μM ATP (KM), read-out: V480L Mutant
Sequence (P07949 29-1114 V804L): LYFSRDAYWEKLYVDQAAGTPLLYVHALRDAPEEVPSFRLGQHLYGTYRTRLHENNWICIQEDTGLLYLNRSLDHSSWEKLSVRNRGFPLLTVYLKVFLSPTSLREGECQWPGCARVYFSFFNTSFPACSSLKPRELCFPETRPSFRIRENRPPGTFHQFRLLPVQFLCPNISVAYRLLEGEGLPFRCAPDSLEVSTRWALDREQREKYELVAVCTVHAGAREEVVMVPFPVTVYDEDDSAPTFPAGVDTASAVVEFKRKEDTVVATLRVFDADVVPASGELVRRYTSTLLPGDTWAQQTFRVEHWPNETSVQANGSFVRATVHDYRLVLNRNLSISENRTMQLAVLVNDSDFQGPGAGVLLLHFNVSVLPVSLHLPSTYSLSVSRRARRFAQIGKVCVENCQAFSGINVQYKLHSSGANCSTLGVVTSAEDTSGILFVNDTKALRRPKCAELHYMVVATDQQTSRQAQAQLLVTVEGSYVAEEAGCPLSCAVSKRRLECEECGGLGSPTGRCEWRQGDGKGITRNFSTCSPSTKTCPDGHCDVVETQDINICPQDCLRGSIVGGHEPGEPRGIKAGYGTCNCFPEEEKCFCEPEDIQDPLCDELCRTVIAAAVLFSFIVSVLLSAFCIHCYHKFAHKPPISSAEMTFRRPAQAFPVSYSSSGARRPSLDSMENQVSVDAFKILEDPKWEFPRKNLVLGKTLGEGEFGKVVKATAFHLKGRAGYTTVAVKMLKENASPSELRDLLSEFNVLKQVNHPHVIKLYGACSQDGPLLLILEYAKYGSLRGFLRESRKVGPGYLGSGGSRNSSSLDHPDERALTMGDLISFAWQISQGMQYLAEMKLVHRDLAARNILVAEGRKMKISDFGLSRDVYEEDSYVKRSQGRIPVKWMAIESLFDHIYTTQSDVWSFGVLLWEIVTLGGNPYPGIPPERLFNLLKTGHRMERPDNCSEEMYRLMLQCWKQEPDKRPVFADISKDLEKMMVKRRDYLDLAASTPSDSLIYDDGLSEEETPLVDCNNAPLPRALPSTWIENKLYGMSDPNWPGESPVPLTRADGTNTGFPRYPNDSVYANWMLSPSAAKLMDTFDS
In this section, each of the compounds is paired with its reported IC50.

1) COC1(C(=O)NCc2ccc(-n3cc(F)cn3)nc2)CCN(c2nc(C)cc(Nc3cc(C)[nH]n3)n2)CC1 [Compound 195] | < 10 nM

Observed IC50, RET V804L (Homo sapiens (Human), UniProt P07949, V804L), COC1(C(=O)NCc2ccc(-n3cc(F)cn3)nc2)CN(c2cc(C(F)F)cc(Nc3cc(C)[nH]n3)n2)C1 [Compound 208] : < 10 nM

Param item: COC1(C(=O)N(C)[C@@H](C)c2ccc(-n3cccn3)nc2)CCN(c2nc(C)cc(Nc3cc(C)[nH]n3)n2)CC1 [Compound 214] ; param system: RET V804L (Homo sapiens (Human), UniProt P07949, V804L); output IC50: < 10 nM

With RET V804L (Homo sapiens (Human), UniProt P07949, V804L) as the test system, COC1(C(=O)NCc2ccc(N3CC[C@@H](F)C3)nc2)CN(c2nc(C)cc(Nc3cc(C)[nH]n3)n2)C1 [Compound 155] showed IC50 of 10 to 100 nM

* * *

biological target: RET V804L (Homo sapiens (Human), UniProt P07949, V804L); assay: RET V804L Gatekeeper Mutant Assay at KM (Caliper electrophoretic mobility shift); settings: 10 μM ATP (KM), read-out: V480L Mutant
Catalogue of IC50 readings, one per entry.

1. CCC1(C(=O)NCc2ccc(-n3cccn3)nc2)CCN(c2nc(C)cc(Nc3cc(C)[nH]n3)n2)CC1 | < 10 nM
2. COc1ccc([C@H](C)NC(=O)C2(O)CCN(c3cc(C)cc(Nc4cc(C)[nH]n4)n3)CC2)cc1 | 10 to 100 nM
3. COC1(C(=O)NCc2ccc(-n3cc(C(F)F)cn3)nc2)CN(c2nc(C)cc(Nc3cc(C)[nH]n3)n2)C1 | 10 to 100 nM

# context switch: different compound, same IC50
The recorded IC50 for CCOC1(C(=O)N[C@@H](C)c2ccc(-n3cc(F)cn3)nc2)CN(c2cc(C)cc(Nc3cc(C)[nH]n3)n2)C1 is < 10 nM

* * *

target: RET V804L (Homo sapiens (Human), UniProt P07949, V804L); test: RET V804L Gatekeeper Mutant Assay at KM (Caliper electrophoretic mobility shift); conditions: 10 μM ATP (KM), read-out: V480L Mutant
pIC50: −log10 of the molar value.
measured metric: pIC50

Some solved entries appear below for comparison.
1. Cc1cc(Nc2cc(C)[nH]n2)nc(N2CCC(O)(C(=O)NCc3ccccc3)CC2)c1 | 7.00 to 8.00
2. Cc1cc(Nc2cc(C)[nH]n2)nc(N2CC[C@@H](C(=O)NCc3ccc(-n4cccn4)nc3)[C@@H](O)C2)c1 | > 8.00
3. Cc1cc(Nc2cc(C)[nH]n2)nc(N2CCC(O)(C(=O)NCc3ccc(-n4cccn4)nc3)CC2)n1 | > 8.00
4. Cc1cc(Nc2cc(C)[nH]n2)nc(N2CCC(O)(C(=O)NCc3ccccc3)CC2)n1 | < 7.00
5. Cc1cc(Nc2cc(C)[nH]n2)nc(N2CC[C@@H](C(=O)NCc3ccc(-n4cccn4)nc3)[C@H](O)C2)c1 | > 8.00
6. COC1(C(=O)N[C@@H](C)c2ccc(-n3cc(F)cn3)nc2)CN(c2nccc(Nc3cc(C)[nH]n3)n2)C1 | > 8.00
7. COC1(C(=O)N[C@@H](C)c2ccc(-n3cccn3)nc2)CN(c2nc(Nc3cc(C)[nH]n3)cc(C)c2C#N)C1 | > 8.00
8. Cc1cc(Nc2cc(C)[nH]n2)nc(N2CC(O)(C(=O)NCc3ccc(-n4cccn4)nc3)C2)c1 | > 8.00

Record summary for COc1ccc(CNC(=O)C2(O)CCN(c3cc(C)cc(Nc4cc(C)[nH]n4)n3)CC2)cc1 : reported pIC50 = 7.00 to 8.00

GET /value?item= CCC1(C(=O)N[C@@H](C)c2ccc(-n3cc(F)cn3)nc2)CN(c2nc(C)cc(Nc3cc(C)[nH]n3)n2)C1 &field=pIC50 returns > 8.00

Per the record, COC1(C(=O)NCc2cnc(-n3ccc(C(F)F)n3)cn2)CN(c2nc(C)cc(Nc3cc(C)[nH]n3)n2)C1 has pIC50 of > 8.00

Data point: Cc1cc(Nc2cc(C)[nH]n2)nc(N2CCC(C)(C(=O)N[C@@H](C)c3ccc(-n4cc(F)cn4)nc3)CC2)n1 ; pIC50 = > 8.00

Entry Cc1cc(Nc2cc(C)c(C#N)c(N3CC(F)(C(=O)N[C@@H](C)c4ccc(-n5cccn5)nc4)C3)n2)n[nH]1 — recorded pIC50 = > 8.00

The reported value for Cc1cc(Nc2cc(C(F)F)cc(N3CC(F)(C(=O)NCc4ccc(-n5cc(F)cn5)nc4)C3)n2)n[nH]1 in terms of pIC50 is > 8.00

* * *

List of pIC50 tested on wild type RET (Homo sapiens (Human), UniProt P07949).
Sequence (P07949 29-1114): as the sequence (P07949 29-1114 V804L) above, with L776V counted along it
pIC50: −log10 of the molar value.

Answered cases to consult:
1) CCC1(C(=O)NCc2ccc(-n3cc(F)cn3)nc2)CCN(c2nc(C)cc(Nc3cc(C)[nH]n3)n2)CC1 | > 8.00
2) COC1(C(=O)N[C@@H](C)c2ccc(-n3cccn3)nc2)CN(c2nc(Nc3cc(C)[nH]n3)cc(C)c2C#N)C1 | > 8.00
3) COC1(C(=O)N[C@@H](C)c2ccc(-n3cc(F)cn3)nc2)CN(c2nccc(Nc3cc(C)[nH]n3)n2)C1 | > 8.00
4) COc1ccc([C@H](C)NC(=O)C2(O)CCN(c3cc(C)cc(Nc4cc(C)[nH]n4)n3)CC2)cc1 | 7.00 to 8.00
5) Cc1cc(Nc2cc(C)[nH]n2)nc(N2CCC(C(=O)NCc3ccccc3)CC2)n1 | < 7.00
6) COc1ccc(CNC(=O)C2(O)CCN(c3cc(C)cc(Nc4cc(C)[nH]n4)n3)CC2)cc1 | 7.00 to 8.00

# COC1(C(=O)NCc2ccc(-n3cc(Cl)cn3)nc2)CN(c2nc(C)cc(Nc3cc(C)[nH]n3)n2)C1 with wild type RET (Homo sapiens (Human), UniProt P07949): pIC50 is > 8.00

Kindly note: wild type RET (Homo sapiens (Human), UniProt P07949), COC1(C(=O)N[C@@H](C)c2cnc(-n3cc(F)cn3)cn2)CCN(c2nc(C)cc(Nc3cc(C)[nH]n3)n2)CC1 , pIC50 value reported: > 8.00

* * *

biological target: RET V804L (Homo sapiens (Human), UniProt P07949, V804L); assay: RET V804L Gatekeeper Mutant Assay at KM (Caliper electrophoretic mobility shift); conditions: 10 μM ATP (KM), read-out: V480L Mutant
measured metric: IC50

Worked cases, IC50 given:
1) Cc1cc(Nc2cc(C)[nH]n2)nc(N2CC(C(=O)N[C@@H](C)c3ccc(-n4cc(F)cn4)nc3)C2)c1 [Compound 119] | < 10 nM
2) COC1(C(=O)N[C@@H](C)c2ccc(-n3cccn3)nc2)CCN(c2nc(Nc3cc(C)[nH]n3)cc(C)c2C#N)CC1 [Compound 222] | < 10 nM
3) COC1(C(=O)N[C@@H](C)c2ccc(-n3cc(F)cn3)nc2)CN(c2cc(C(F)F)cc(Nc3cc(C)[nH]n3)n2)C1 [Compound 223] | < 10 nM
4) Cc1cc(Nc2cc(C)[nH]n2)nc(N2CC(F)(C(=O)N[C@@H](C)c3ccc(-n4cc(F)cn4)nc3)C2)n1 [Compound 153] | < 10 nM

So for Cc1cc(Nc2cc(C)[nH]n2)nc(N2CC(F)(C(=O)NCc3ccc(-n4cccn4)nc3)C2)n1 [Compound 112] , the logged IC50 turned out to be < 10 nM

Given item Cc1cc(Nc2cc(C)c(C#N)c(N3CC(F)(C(=O)NCc4ccc(-n5cc(F)cn5)nc4)C3)n2)n[nH]1 [Compound 165] , the value recorded as its IC50 is < 10 nM

The recorded IC50 for COC1(C(=O)NCc2ccc(N3CC[C@H](F)C3)nc2)CN(c2nc(C)cc(Nc3cc(C)[nH]n3)n2)C1 [Compound 154] is > 100 nM

For reference, reported IC50 for COC1(C(=O)N[C@@H](C)c2ccc(-n3cc(F)cn3)nc2)CCN(c2nccc(Nc3cc(C)[nH]n3)n2)CC1 [Compound 196] stands at < 10 nM

* * *

target: RET V804L (Homo sapiens (Human), UniProt P07949, V804L); assay: RET V804L Gatekeeper Mutant Assay at KM (Caliper electrophoretic mobility shift); conditions: 10 μM ATP (KM), read-out: V480L Mutant
pIC50: −log10 of the molar value.
measured metric: pIC50

1. Cc1cc(Nc2cc(C)[nH]n2)nc(N2CCC(C)(C(=O)N[C@@H](C)c3ccc(-n4cc(F)cn4)nc3)CC2)c1 [Compound 188] | > 8.00
2. Cc1cc(Nc2cc(C)[nH]n2)nc(N2CC(C#N)(C(=O)N[C@@H](C)c3ccc(-n4cccn4)nc3)C2)n1 [Compound 126] | > 8.00
3. COC1(C(=O)NCc2ccc(-n3cc(F)cn3)nc2)CN(c2nc(Nc3cc(C)[nH]n3)cc(C)c2F)C1 [Compound 174] | > 8.00
4. Cc1cc(Nc2cc(C)[nH]n2)nc(N2CCC(C(=O)NCc3ccccc3)CC2)n1 [Compound 100] | 7.00 to 8.00
5. CCOc1ccc(CNC(=O)C2(O)CCN(c3cc(C)cc(Nc4cc(C)[nH]n4)n3)CC2)cc1 [Compound 113] | > 8.00

Field: next compound
Record COC1(C(=O)N[C@@H](C)c2ccc(-n3cc(F)cn3)nc2)CN(c2nc(Nc3cc(C)[nH]n3)cc(C)c2C#N)C1 [Compound 212] , field pIC50: > 8.00
